Attribution: paper PMC10040144

# SYSTEM NAME: PBP1a (Escherichia coli, UniProt P02918)
# Format: cell-based, Escherichia coli MG1655
pIC50: −log10 of the molar value.
Label Yes when pIC50 >= 5; otherwise No.

Check out these entries, answers already filled in.
• COc1cccc(OC)c1C(=O)N[C@@H]1C(=O)N2[C@@H]1SC(C)(C)[C@@H]2C(=O)O [methicillin] = No
• CO/N=C(\C(=O)N[C@@H]1C(=O)N2C(C(=O)O)=C(COC(N)=O)CS[C@H]12)c1ccco1 [cefuroxime] = No
• CCN1CCN(C(=O)N[C@@H](C(=O)N[C@@H]2C(=O)N3[C@@H]2SC(C)(C)[C@@H]3C(=O)O)c2ccccc2)C(=O)C1=O [piperacillin] = No
• CC1=C(C(=O)O)N2C(=O)[C@@H](NC(=O)[C@H](N)c3ccccc3)[C@H]2SC1 [cephalexin] = No
• CO/N=C(\C(=O)N[C@@H]1C(=O)N2C(C(=O)O)=C(CSc3nc(=O)c(=O)[nH]n3C)CS[C@H]12)c1csc(N)n1 [ceftriaxone] = Yes

Say whether CO/N=C(\C(=O)N[C@@H]1C(=O)N2C(C(=O)[O-])=C(C[N+]3(C)CCCC3)CS[C@H]12)c1csc(N)n1 [cefepime] shows pIC50 of 5 or more.
Yes

Say whether N[C@@H](C(=O)N[C@@H]1C(=O)N2C(C(=O)O)=C(Cl)CS[C@H]12)c1ccccc1 [cefaclor] shows pIC50 of 5 or more.
No

----------
Please consider the recorded pIC50 for PBP4 (Escherichia coli, UniProt P24228) in what follows.
Remember, pIC50 is on a log scale: it is -log10 of the molar concentration.

# pIC50 lookup, item CO/N=C(\C(=O)N[C@@H]1C(=O)N2C(C(=O)O)=C(CSc3nc(=O)c(=O)[nH]n3C)CS[C@H]12)c1csc(N)n1
5.52

# pIC50 lookup, item COc1cccc(OC)c1C(=O)N[C@@H]1C(=O)N2[C@@H]1SC(C)(C)[C@@H]2C(=O)O
4.06

# pIC50 lookup, item CO/N=C(\C(=O)N[C@@H]1C(=O)N2C(C(=O)O)=C(COC(N)=O)CS[C@H]12)c1ccco1
4.62

----------
# reported IC50; entries follow
# SYSTEM NAME: PBP7 (Escherichia coli, UniProt P0AFI5)
# Sequence (P0AFI5 26-310): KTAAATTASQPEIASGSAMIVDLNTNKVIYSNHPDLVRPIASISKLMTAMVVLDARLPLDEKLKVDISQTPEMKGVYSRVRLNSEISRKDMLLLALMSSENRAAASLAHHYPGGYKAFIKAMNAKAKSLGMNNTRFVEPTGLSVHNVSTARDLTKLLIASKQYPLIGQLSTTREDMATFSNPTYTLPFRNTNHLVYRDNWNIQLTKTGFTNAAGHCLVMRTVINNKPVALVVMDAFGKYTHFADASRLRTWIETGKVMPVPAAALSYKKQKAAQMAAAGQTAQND
Write the answer as a number in µM, unit excluded.

• C[C@@H](O)[C@H]1C(=O)N2C(C(=O)O)=C([C@H]3CCCO3)S[C@H]12 = 1.2
• CO/N=C(\C(=O)N[C@@H]1C(=O)N2C(C(=O)O)=C(COC(N)=O)CS[C@H]12)c1ccco1 = 25
• COc1cccc(OC)c1C(=O)N[C@@H]1C(=O)N2[C@@H]1SC(C)(C)[C@@H]2C(=O)O = 58

# IC50 lookup, item CC1=C(C(=O)O)N2C(=O)[C@@H](NC(=O)[C@H](N)c3ccccc3)[C@H]2SC1
200

----------
# SYSTEM NAME: PBP1b (Escherichia coli, UniProt P02919)
# Sequence (P02919 whole entry): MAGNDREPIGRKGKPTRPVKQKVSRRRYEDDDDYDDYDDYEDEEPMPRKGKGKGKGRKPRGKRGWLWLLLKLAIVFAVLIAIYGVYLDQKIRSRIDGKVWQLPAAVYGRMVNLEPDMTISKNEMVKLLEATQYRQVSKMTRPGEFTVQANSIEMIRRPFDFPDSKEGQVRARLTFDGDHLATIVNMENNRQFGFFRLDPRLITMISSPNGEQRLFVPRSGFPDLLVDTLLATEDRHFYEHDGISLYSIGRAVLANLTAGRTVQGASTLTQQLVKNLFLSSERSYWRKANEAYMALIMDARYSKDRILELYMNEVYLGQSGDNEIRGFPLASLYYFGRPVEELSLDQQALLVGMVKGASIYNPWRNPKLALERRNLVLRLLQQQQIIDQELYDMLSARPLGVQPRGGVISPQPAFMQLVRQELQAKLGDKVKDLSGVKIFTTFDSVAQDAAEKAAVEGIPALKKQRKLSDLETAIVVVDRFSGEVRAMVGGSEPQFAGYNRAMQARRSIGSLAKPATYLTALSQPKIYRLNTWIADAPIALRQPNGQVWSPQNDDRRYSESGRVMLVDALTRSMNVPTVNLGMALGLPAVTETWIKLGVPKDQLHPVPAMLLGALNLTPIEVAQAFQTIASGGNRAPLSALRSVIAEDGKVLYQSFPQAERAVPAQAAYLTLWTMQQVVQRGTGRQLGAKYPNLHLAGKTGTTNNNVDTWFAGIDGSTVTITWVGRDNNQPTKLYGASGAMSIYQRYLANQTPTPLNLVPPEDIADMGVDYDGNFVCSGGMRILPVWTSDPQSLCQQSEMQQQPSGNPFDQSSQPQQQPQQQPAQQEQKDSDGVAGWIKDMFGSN
MEASURED ENDPOINT: IC50

Consider the worked cases shown below.
- N[C@@H](C(=O)N[C@@H]1C(=O)N2C(C(=O)O)=C(Cl)CS[C@H]12)c1ccccc1: > 10000 µM
- C[C@@H](O)[C@H]1C(=O)N2C(C(=O)O)=C([C@H]3CCCO3)S[C@H]12: 0.4 µM
- CO/N=C(\C(=O)N[C@@H]1C(=O)N2C(C(=O)O)=C(CSc3nc(=O)c(=O)[nH]n3C)CS[C@H]12)c1csc(N)n1: 0.2 µM
- CO/N=C(\C(=O)N[C@@H]1C(=O)N2C(C(=O)O)=C(COC(N)=O)CS[C@H]12)c1ccco1: 1.6 µM

Proceed to the following item.
Tell me reported IC50 for NC(=O)[C@@H]1CC[C@@H]2CN1C(=O)N2OS(=O)(=O)O , tested with PBP1b (Escherichia coli, UniProt P02919).
310 µM
